experiment: Other, Phenomenex Kinetex PFP, 100 × 4.6 mm, 5 µm, 45 °C, 0.6 mL/min, estimated dead time 1.8 min; A: water + 0.1% trifluoroacetic acid, pH 2; B: methanol; gradient (min/%B) 0/40 20/72 21/40; conditions: stereoisomer not certain
measureName: LC retention time (min)
Please state the figure in min; there is no need to write the unit.

Known LC retention time results, listed for orientation:
{"columns": ["molecule", "LC retention time [min]"],
 "data": [
  ["O=C(O)c1ccc(O)c(O)c1O [2,3,4-Trihydroxybenzoic acid]", 4.34],
  ["COc1cc(/C=C/C(=O)O)ccc1O", 7.59],
  ["Oc1cc(O)cc(O)c1", 2.9]
]}

// LC retention time lookup, key: O=C(O)c1cccc(O)c1 [3-Hydroxybenzoic acid]
5.57

# get_value(readout='LC retention time', item= O=C(O)c1ccc(O)c(O)c1 )
3.85

Form field: reported LC retention time of O=C1c2c(O)cc(O)cc2OC(c2cc(O)c(OS(=O)(=O)O)c(O)c2)C1O (stereo not drawn) [Ampelopsin-4-O-sulfate]
7.54

Entry CC1OC(OC2C(Oc3cc(O)c4c(c3)OC(c3ccc(O)cc3)CC4=O)OC(CO)C(O)C2O)C(O)C(O)C1O (stereo not drawn) : reported LC retention time = ?
9.02

Which measured LC retention time value corresponds to COc1cc(C2Oc3c(O)cc(-c4oc5cc(O)cc(O)c5c(=O)c4O)cc3C2CO)ccc1O (stereo not drawn) [2,3-Dehydrosilychristin A] ?
17.5
